# ASSAY SYSTEM: TAOK3 (UniProt Q9H2K8)
# Sequence (Q9H2K8 whole entry, looked up): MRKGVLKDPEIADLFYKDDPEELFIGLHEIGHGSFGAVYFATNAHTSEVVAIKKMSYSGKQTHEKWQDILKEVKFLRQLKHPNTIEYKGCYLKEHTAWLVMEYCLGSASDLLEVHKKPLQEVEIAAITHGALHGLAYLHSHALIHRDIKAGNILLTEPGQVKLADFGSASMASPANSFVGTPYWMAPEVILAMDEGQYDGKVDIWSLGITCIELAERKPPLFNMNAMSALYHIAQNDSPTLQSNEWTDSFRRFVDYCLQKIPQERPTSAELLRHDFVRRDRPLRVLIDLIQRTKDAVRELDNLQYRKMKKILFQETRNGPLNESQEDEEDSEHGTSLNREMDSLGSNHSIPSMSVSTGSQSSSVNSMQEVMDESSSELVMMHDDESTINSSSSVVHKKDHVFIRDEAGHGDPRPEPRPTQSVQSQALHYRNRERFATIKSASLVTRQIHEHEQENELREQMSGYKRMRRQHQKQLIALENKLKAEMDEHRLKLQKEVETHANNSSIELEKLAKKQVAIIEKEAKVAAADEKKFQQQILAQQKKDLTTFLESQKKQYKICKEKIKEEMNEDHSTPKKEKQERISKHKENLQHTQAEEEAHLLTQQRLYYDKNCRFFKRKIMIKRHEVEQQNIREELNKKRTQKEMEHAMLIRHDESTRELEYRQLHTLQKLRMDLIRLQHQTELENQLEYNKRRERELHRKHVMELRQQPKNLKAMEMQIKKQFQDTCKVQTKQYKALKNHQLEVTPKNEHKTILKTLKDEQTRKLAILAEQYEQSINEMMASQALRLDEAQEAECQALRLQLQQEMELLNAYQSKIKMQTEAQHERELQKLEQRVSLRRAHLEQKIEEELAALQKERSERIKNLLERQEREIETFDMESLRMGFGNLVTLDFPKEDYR
# MEASUREMENT DESCRIPTION: pIC50, kinobeads binding competition
# CONDITION DETAILS: cell material: Lysate mix
MEASURED METRIC: pIC50

Sample answers from the record:
CCNC(=O)c1cc(Nc2cc(C)[nH]n2)nc(N2CCN(Cc3ccc(S(=O)(=O)F)cc3)CC2)n1 :: < 4.52
C#CCNC(=O)c1cc(Nc2cc(C3CC3)[nH]n2)nc(N2CCN(Cc3ccc(S(=O)(=O)F)cc3)CC2)n1 :: < 4.52
CCNC(=O)c1cc(Nc2cc(C3CC3)[nH]n2)nc(N2CCN(Cc3ccc(S(=O)(=O)F)cc3)CC2)n1 :: < 4.52
Cc1cc(Nc2cc(C(=O)NCCNC(=O)OC3CC/C=C/CCC3)nc(N3CCN(Cc4ccc(S(=O)(=O)F)cc4)CC3)n2)n[nH]1 (stereo unspecified) :: 6.03

query: Param request: pIC50 | system TAOK3 (UniProt Q9H2K8) | item C#CCNC(=O)c1cc(Nc2cc(C)[nH]n2)nc(N2CCN(Cc3ccc(S(=O)(=O)F)cc3)CC2)n1
result: < 4.52

query: Enter recorded pIC50 with TAOK3 (UniProt Q9H2K8) for O=C(NCCNC(=O)c1cc(Nc2cc(C3CC3)[nH]n2)nc(N2CCN(Cc3ccc(S(=O)(=O)F)cc3)CC2)n1)OC1CC/C=C/CCC1 (stereo unspecified) here.
result: 5.55
